Numbers sourced from patent US12263171B2.

target: human A2a adenosine receptor (Homo sapiens (Human)); test: A2a receptor affinity radioligand binding assay ([3H] SCH58261, membranes from HEK293 or CHO cells); details: unstarred values: radioligand binding
Sequence (P29274 whole entry): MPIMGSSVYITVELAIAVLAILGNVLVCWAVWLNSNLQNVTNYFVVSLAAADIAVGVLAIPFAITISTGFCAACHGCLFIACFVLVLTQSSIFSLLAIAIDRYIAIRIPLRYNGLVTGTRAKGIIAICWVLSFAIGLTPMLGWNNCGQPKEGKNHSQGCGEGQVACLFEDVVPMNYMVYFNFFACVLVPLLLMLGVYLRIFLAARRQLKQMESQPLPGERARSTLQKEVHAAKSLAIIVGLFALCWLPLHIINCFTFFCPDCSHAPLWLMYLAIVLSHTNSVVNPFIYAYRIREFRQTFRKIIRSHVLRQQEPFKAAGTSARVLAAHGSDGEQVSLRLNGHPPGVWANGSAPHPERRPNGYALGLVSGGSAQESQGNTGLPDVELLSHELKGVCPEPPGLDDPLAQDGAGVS
pIC50: −log10 of the molar value.
property.measured: pIC50

1. COc1cccc2c1nc(N)n1nc([C@@H]3CCCN(c4cnn(C(C)(C)C(=O)NC(C)C)c4)C3)nc21
2. COc1cccc2c1nc(N)n1nc([C@@H]3CCCN(c4cn(C)nn4)C3)nc21
Ask: // select label with min value of measured pIC50 from [ 1 , 2 ] Write the label of whichever entry you select.
Result: 1

====

target: human A2b adenosine receptor (Homo sapiens (Human), UniProt P29275); test: A2B antagonism in cAMP cell-based assay (LANCE cAMP, HEK293 cells, 600 nM adenosine); settings: values marked *: cAMP cell-based assay
Sequence (P29275 whole entry): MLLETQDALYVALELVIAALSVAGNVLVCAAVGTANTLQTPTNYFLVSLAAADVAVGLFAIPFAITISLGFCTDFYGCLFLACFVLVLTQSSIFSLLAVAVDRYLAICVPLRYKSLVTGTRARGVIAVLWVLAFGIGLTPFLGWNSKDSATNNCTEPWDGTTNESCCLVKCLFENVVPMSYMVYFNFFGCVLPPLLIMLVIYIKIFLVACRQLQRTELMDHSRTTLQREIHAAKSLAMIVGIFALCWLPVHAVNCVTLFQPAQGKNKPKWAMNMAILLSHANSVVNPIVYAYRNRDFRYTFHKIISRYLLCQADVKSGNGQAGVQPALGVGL
property.measured: IC50 (nM)

I. COc1cc(F)c2c(c1)nc(N)n1nc([C@@H]3CC[C@H](C)N(c4cnn(CC(C)(C)O)c4)C3)nc21
II. COc1cccc2c1nc(N)n1nc([C@@H]3CCCN(c4cnn(C)c4C(F)(F)F)C3)nc21
III. COc1ccc2c(c1)nc(N)n1nc([C@H]3C[C@H](C)CN(c4cnn(C(C)(C)CO)c4)C3)nc21 [Example 222B]
IV. CCn1cc(N2CCC[C@@H](c3nc4c5cccc(OC)c5nc(N)n4n3)C2)cn1
V. COc1ccc2c(c1)nc(N)n1nc([C@@H]3CCCN(c4cnn(C)c4)C3)nc21
Ask: # rank above entries by IC50 (max first, min last) Put the labels in the requested order and list them out.
Result: III, II, V, IV, I
